# Tested on: MCF10A
# Protocol: percent viability (nuclei count relative to siNT); higher = more viable cells
# Measurement parameters: 20 nM; 72 h
Could you please report measured percent viability for the items listed next?
One number for each entry, in %.

Query sequence | Assayed system | percent viability (%)
GUUUGGACAUAGUGUGGCUGG [hsa-miR-7850-5p] | MCF10A | 115
UGGGAGAGCAGGGUAUUGUGGA [hsa-miR-6731-5p] | MCF10A | 6.77
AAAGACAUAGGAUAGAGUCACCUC [hsa-miR-641] | MCF10A | 213

Parameters: items (list). Returns: percent viability for each item.
1. UGGGGCGGGGCAGGUCCCUGC [hsa-miR-6816-5p]
2. AGGCCUGUGGCUCCUCCCUCAG [hsa-miR-6735-3p]
3. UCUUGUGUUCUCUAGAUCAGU [hsa-miR-581]
4. UCGGCCUGGGGAGGAGGAAGGG [hsa-miR-7107-5p]
5. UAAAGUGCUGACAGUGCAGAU [hsa-miR-106b-5p]

[71.1, 50.4, 82.2, 77.4, 91.2]
